- protocol-notes: yeast display, Sf9 membrane polyspecificity reagent, FACS + sequencing; frameworks hold sequencing errors
assay-endpoint: polyreactivity (PSR sort gate)

QVQLVESGGGLVQAGGSLRLSCAASGSIFALYAMGWYRQAPGQERELVAAISYRGGRTYYADSVKGRFTISRDNAKNTVYLQMNSLKPEDTAVYYCNARAFPFGTGVQGFGFGYWGQGTQVTVSS    low polyreactivity
QVQLVESGGGLVQAGGSLRLSCAASGSTFGVNAMGWYRQAPGKERELVAVITRSGGSTYYADSVKGRFTISRDNAKNTVYLQMNSLKPEDTAVYYCATSGVVDWGQGTQVTVSS    low polyreactivity
QVQLVESGGGLVQAGGSLRLSCAASGSTFRLYAMGWYRQAPGKERELVAAISTRGSSTYYADSVKGRFTISRDNAKNTVYLQMNSLKPEDTAVYYCAADAYFIYSRYWYDYWGQGTQVTVSS    high polyreactivity
QGQLVESGGGLVQAGGSLRLSCAASGSIFFGNAMGWYRQAPGKERELVAGITGGGSTYYADSVKGRFTISRDNAKNTVYLQMNSLKPEDTAVYYCNKKAYRKTGMDYWGQGTQVTVSS    low polyreactivity
QVQLVESGGGLVQAGGSLRLSCAASGSIFWGNAMGWYRQAPGKERELVAAITGSGGSSYYADSVKGRFTISRDNAKNRVYLLMNSVKPEDTAVYYCADLFRTFYYWGQGTQVTVSS    high polyreactivity

* * *

- protocol-notes: yeast display, Sf9 membrane polyspecificity reagent, FACS + sequencing; frameworks hold sequencing errors
assay-endpoint: polyreactivity (PSR sort gate)

QVQLVESGGGLVQAGGSLLLRCAASGSIFPWNTMGWNRQAPGKERELVARISTSGASTYYADSVKGRFTISRDNAKNTVYLQMNSRKPEDTAVYYGAARDWSHRPRGYDYWGQGTQVTVSS    high polyreactivity
QVQLVESGGGLVQAGGRLRLSCAASGLTFLPNAMGWYRQAPGKERELVAAISWSDVRTYYADSVKGRFTISRDNAKNTVYLQMNSLKPEDTAVYYCAAEIYDLPEGDYWGQGTQVTVSS    high polyreactivity
QVQLVESGGGLVQAGGSLRLSCAASGRIFDYNAMGWYRQAPGKERELVAAITKDDGSTYYADSVKGRFTISRDNAKNTVYLQMNSLKPEDTAVYYCAAEFYWTYVDIWYDYWGQGTQVTVSS    low polyreactivity
QVQLVESGGGLVQAGGSLRLSCAASGSTAENVMGWYRQAPGKERELVAAISSRGGSTYYADSVKGRFTISRDNAKNTVYLQMNSLKPEDTAVYYCAAEYVSHFSGDRYDYWGQGTQVTVSS    low polyreactivity
QVQLVESGGGLVQAGGSLRLSCAASGSIFGGNDMGWYRQAPGKERELVAAITSSGGSTYYADSVKGRFTISRDNAKNTVYLQMNSLKPEDTAVYYCYADYYGPYRDYGYWGQGTQVTVSS    low polyreactivity
QVQLVDSGGGLVQAGGSLRLSCAASGFIFIFYTMGWYRQAPGNERELVAAISRSGGSTYYADSVKGRFTISRDNAKNTVYLQMNSLKPEDTAVYYCAARAKLSHRWRSYYWGQGTQVTVSS    high polyreactivity
QVQLVESGGGLVQAGGSLRLSCAASGSTIAFYDMGWYRQAPGKEREMVAAISQSDGDTYYADSVKGRFTISRDNAKNTVYLQMNSLKPEDTAVYYCARPSFTSGYQSYDYWGQGTQVTVSS    low polyreactivity
QVQLVESGGGLVQEGGSLRLSCAASGGTFYNYAMGWYRQAPGKERELVAAITYSGGITYYADSVKGRFTISRDNAKNTVYLQMNRLKPEDTAVYYCAADGYGNYDQYGYWGQGTQVTVSS    low polyreactivity
QVQLVESCGGLVQAGGRLRLSCADYGRTFSWYAMGSYRQAPGKERELVAAITFRGGRTYYADSVKGRFTISRDNAKNTVYIQMNSLKPEDTAVYYFNAVTYSSPYRFDYCGQGTQVTVSS    low polyreactivity
QVQLVESGGGLVQAGGSLRLSCAASGRIFTHNAMGWYIQAPGKERELVAAITSGGRTTYADSVKGRFTISRENAKNTVYLQMISLKPVDTAVYYCAADDLLDYDYWGQGTQVTVSS    low polyreactivity
QVQLVESGGGLVQAGGSLRLSCAASGSTFTSYAMGWYRQAPGKERELVAAITYGSGTTYADSVKGRFTISRDNAKNTVYLQMNSLKPEDTAVYYCAADFYYPVLGHGFPTYEYDYWGQGTQVTVSS    low polyreactivity
